All figures here come from ChEMBL document CHEMBL1165850.

- Test system: Rattus norvegicus
- assayExplanation: Antiinflammatory activity in rat assessed as reduction in carrageenan-induced paw edema at 9 mg/kg, ip administered 1 hr before carrageenan challenge measured after 1 hr
- Assay type: functional
- Parameters: unit not given here
- measurementContext: route intraperitoneal
experimentalReadout: Activity
Output: the number by itself.

# example entries with known answers
Q. API: value(readout=Activity, system=Rattus norvegicus) for record CCOC(=O)c1ccc(N2C(=O)c3ccccc3NC23CCCCC3)cc1
A. 44.2

Q. API: value(readout=Activity, system=Rattus norvegicus) for record N#Cc1c(-c2ccccc2O)cc(-c2ccc(N3C(=O)c4ccccc4NC34CCCCC4)cc2)[nH]c1=O
A. 49.4

Q. API: value(readout=Activity, system=Rattus norvegicus) for record CN(C)c1ccc(C2CC(c3ccc(N4C(=O)c5ccccc5NC45CCCCC5)cc3)=NN2c2ccccc2)cc1 (stereo not given)
A. 57.9

Q. API: value(readout=Activity, system=Rattus norvegicus) for record CC(=O)N1N=C(c2ccc(N3C(=O)c4ccccc4NC34CCCCC4)cc2)CC1c1ccco1 (stereo not given)
A. 49.9

Next:
Q. API: value(readout=Activity, system=Rattus norvegicus) for record NNC(=O)c1ccc(N2C(=O)c3ccccc3NC23CCCCC3)cc1
A. 57.5

Q. API: value(readout=Activity, system=Rattus norvegicus) for record N#Cc1c(-c2ccccc2O)cc(-c2ccc(N3C(=O)c4ccccc4NC34CCCCC4)cc2)[nH]c1=N
A. 61

====

- Test system: Mus musculus
- assayExplanation: Analgesic activity in mouse assessed as reaction time administered 1 hr before test measured after 1 hr by hot plate test
- Assay type: functional
experimentalReadout: Time (s)
Kindly answer with a numeric value in s, unit omitted.

# example entries with known answers
Q. API: value(readout=Time, system=Mus musculus) for record O=C1c2ccccc2NC2(CCCCC2)N1c1ccc(S(=O)(=O)Nc2ncccn2)cc1
A. 19.8

Q. API: value(readout=Time, system=Mus musculus) for record O=C(NN1C(=O)CC(=O)N(C2CCCCC2)C1=S)c1ccc(N2C(=O)c3ccccc3NC23CCCCC3)cc1
A. 9.4

Q. API: value(readout=Time, system=Mus musculus) for record O=C(NN1C(=O)CSC1c1cccs1)c1ccc(N2C(=O)c3ccccc3NC23CCCCC3)cc1 (centres undefined)
A. 21

Q. API: value(readout=Time, system=Mus musculus) for record N#Cc1c(-c2ccccc2O)cc(-c2ccc(N3C(=O)c4ccccc4NC34CCCCC4)cc2)[nH]c1=N
A. 14.6

Next:
Q. API: value(readout=Time, system=Mus musculus) for record COc1ccc(/C=N/NC(=O)c2ccc(N3C(=O)c4ccccc4NC34CCCCC4)cc2)cc1
A. 13.3

Q. API: value(readout=Time, system=Mus musculus) for record N#Cc1c(-c2ccc(F)cc2)cc(-c2ccc(N3C(=O)c4ccccc4NC34CCCCC4)cc2)[nH]c1=N
A. 24.1

Q. API: value(readout=Time, system=Mus musculus) for record CCOC(=O)c1ccc(N2C(=O)c3ccccc3NC23CCCCC3)cc1
A. 12

Q. API: value(readout=Time, system=Mus musculus) for record CC(=O)N1N=C(c2ccc(N3C(=O)c4ccccc4NC34CCCCC4)cc2)CC1c1ccco1 (centres undefined)
A. 9.5

Q. API: value(readout=Time, system=Mus musculus) for record N#Cc1c(-c2ccc(F)cc2)cc(-c2ccc(N3C(=O)c4ccccc4NC34CCCCC4)cc2)[nH]c1=O
A. 11.8

Q. API: value(readout=Time, system=Mus musculus) for record N#Cc1c(-c2ccccc2O)cc(-c2ccc(N3C(=O)c4ccccc4NC34CCCCC4)cc2)[nH]c1=O
A. 24.9

Q. API: value(readout=Time, system=Mus musculus) for record NS(=O)(=O)c1ccc(N2C(=O)c3ccccc3NC23CCCCC3)cc1
A. 9.5

====

- Tested on: Rattus norvegicus
- assayExplanation: Antiinflammatory activity in rat assessed as reduction in carrageenan-induced paw edema at 9 mg/kg, ip administered 1 hr before carrageenan challenge measured after 1 hr
- Assay type: functional
- Set-up: unit not given here
- measurementContext: route intraperitoneal
Reported Activity is given for each of the following compounds.

# example entries with known answers
Q. GET /values?readout=Activity&item= N#Cc1c(-c2ccc(F)cc2)cc(-c2ccc(N3C(=O)c4ccccc4NC34CCCCC4)cc2)[nH]c1=O
A. 85.4

Q. GET /values?readout=Activity&item= O=C1c2ccccc2NC2(CCCCC2)N1c1ccc(S(=O)(=O)Nc2ncccn2)cc1
A. 60.4

Q. GET /values?readout=Activity&item= CCC(=S)NS(=O)(=O)c1ccc(N2C(=O)c3ccccc3NC23CCCCC3)cc1
A. 67.5

Q. GET /values?readout=Activity&item= O=C(NN1C(=O)CN(C2CCCCC2)C1=S)c1ccc(N2C(=O)c3ccccc3NC23CCCCC3)cc1
A. 54.9

Q. GET /values?readout=Activity&item= N#Cc1c(-c2ccc(F)cc2)cc(-c2ccc(N3C(=O)c4ccccc4NC34CCCCC4)cc2)[nH]c1=N
A. 66.4

Next:
Q. GET /values?readout=Activity&item= O=C(NN1C(=O)CC(=O)N(C2CCCCC2)C1=S)c1ccc(N2C(=O)c3ccccc3NC23CCCCC3)cc1
A. 61.7

Q. GET /values?readout=Activity&item= NS(=O)(=O)c1ccc(N2C(=O)c3ccccc3NC23CCCCC3)cc1
A. 57.7

Q. GET /values?readout=Activity&item= O=C1c2ccccc2NC2(CCCCC2)N1c1ccc(C2=NN(c3ccccc3)C(c3ccco3)C2)cc1 (centres undefined)
A. 52.2

Q. GET /values?readout=Activity&item= O=C(NN1C(=O)CSC1c1cccs1)c1ccc(N2C(=O)c3ccccc3NC23CCCCC3)cc1 (centres undefined)
A. 56.2

====

- System: Rattus norvegicus
- assayExplanation: Antiinflammatory activity in rat assessed as reduction in carrageenan-induced paw edema at 9 mg/kg, ip administered 1 hr before carrageenan challenge measured after 2 hrs
- Format: functional
- Parameters: unit not given here
- measurementContext: route intraperitoneal
Reported Activity is given for each of the following compounds.
Output: the number by itself.

Q. GET /values?readout=Activity&item= O=C(NN1C(=O)CC(=O)N(C2CCCCC2)C1=S)c1ccc(N2C(=O)c3ccccc3NC23CCCCC3)cc1
A. 79.3

Q. GET /values?readout=Activity&item= CC(=O)c1ccc(N2C(=O)c3ccccc3NC23CCCCC3)cc1
A. 80.9

Q. GET /values?readout=Activity&item= N#Cc1c(-c2ccc(F)cc2)cc(-c2ccc(N3C(=O)c4ccccc4NC34CCCCC4)cc2)[nH]c1=N
A. 78.2

Next:
Q. GET /values?readout=Activity&item= O=C1c2ccccc2NC2(CCCCC2)N1c1ccc(C2=NN(c3ccccc3)C(c3ccco3)C2)cc1 (stereo unspecified)
A. 79.1

Q. GET /values?readout=Activity&item= O=C(NNC(=S)NC1CCCCC1)c1ccc(N2C(=O)c3ccccc3NC23CCCCC3)cc1
A. 82.1

Q. GET /values?readout=Activity&item= NS(=O)(=O)c1ccc(N2C(=O)c3ccccc3NC23CCCCC3)cc1
A. 78.9

====

- Tested on: Rattus norvegicus
- assayExplanation: Antiinflammatory activity in rat assessed as reduction in carrageenan-induced paw edema at 9 mg/kg, ip administered 1 hr before carrageenan challenge measured after 1 hr
- Format: functional
- Parameters: unit not given here
- measurementContext: route intraperitoneal
experimentalReadout: Activity

Q. GET /values?readout=Activity&item= CC(=O)c1ccc(N2C(=O)c3ccccc3NC23CCCCC3)cc1
A. 54.6

Q. GET /values?readout=Activity&item= O=C(NNC(=S)NC1CCCCC1)c1ccc(N2C(=O)c3ccccc3NC23CCCCC3)cc1
A. 65.1

Q. GET /values?readout=Activity&item= COc1ccc(/C=N/NC(=O)c2ccc(N3C(=O)c4ccccc4NC34CCCCC4)cc2)cc1
A. 72.4

Next:
Q. GET /values?readout=Activity&item= O=C(/C=C/c1ccco1)c1ccc(N2C(=O)c3ccccc3NC23CCCCC3)cc1
A. 60.4

====

- System: Mus musculus
- assayExplanation: Analgesic activity in mouse assessed as reaction time administered 1 hr before test measured after 1 hr by hot plate test
- Format: functional
Kind request: treat 10 s as inclusive, so Time at 10 s or higher is Y, anything lower is N.

Observe how each entry below is paired with its result.
Q. Textbook exercise: given the entry CCC(=S)NS(=O)(=O)c1ccc(N2C(=O)c3ccccc3NC23CCCCC3)cc1 , state whether its Time is greater than or equal to 10 s.
A. Y

Q. Textbook exercise: given the entry CN(C)c1ccc(C2CC(c3ccc(N4C(=O)c5ccccc5NC45CCCCC5)cc3)=NN2c2ccccc2)cc1 (stereo not drawn) , state whether its Time is greater than or equal to 10 s.
A. Y

Q. Textbook exercise: given the entry CC(=O)c1ccc(N2C(=O)c3ccccc3NC23CCCCC3)cc1 , state whether its Time is greater than or equal to 10 s.
A. N

Q. Textbook exercise: given the entry NNC(=O)c1ccc(N2C(=O)c3ccccc3NC23CCCCC3)cc1 , state whether its Time is greater than or equal to 10 s.
A. N

Q. Textbook exercise: given the entry O=C(NNC(=S)NC1CCCCC1)c1ccc(N2C(=O)c3ccccc3NC23CCCCC3)cc1 , state whether its Time is greater than or equal to 10 s.
A. N

Q. Textbook exercise: given the entry O=C1c2ccccc2NC2(CCCCC2)N1c1ccc(C2=NN(c3ccccc3)C(c3ccco3)C2)cc1 (stereo not drawn) , state whether its Time is greater than or equal to 10 s.
A. N

Next:
Q. Textbook exercise: given the entry O=C(NN1C(=O)CN(C2CCCCC2)C1=S)c1ccc(N2C(=O)c3ccccc3NC23CCCCC3)cc1 , state whether its Time is greater than or equal to 10 s.
A. N

Q. Textbook exercise: given the entry O=C(/C=C/c1ccco1)c1ccc(N2C(=O)c3ccccc3NC23CCCCC3)cc1 , state whether its Time is greater than or equal to 10 s.
A. N
